Tested on: Tyrosine-protein kinase ABL1 (Homo sapiens), P00519 [T315I]
Assay: Inhibition of ABL1 T315I mutant at 1 uM

{"smiles.str": "COC1CCN(C(=O)c2ccc(-c3cnc4c(c3)N(Cc3cc(Cl)ccc3C(F)(F)F)CCN4)cc2)CC1", "target.entity": "Tyrosine-protein kinase ABL1 (Homo sapiens), P00519 [T315I]", "unit.name": "%", "cmp": "<", "inhibition": 50}
{"smiles.str": "O=C(c1ccc(-c2cnc3c(c2)N(Cc2cc(Cl)ccc2C(F)(F)F)CCN3)cc1)N1CCC(N2CCCC2)CC1", "target.entity": "Tyrosine-protein kinase ABL1 (Homo sapiens), P00519 [T315I]", "unit.name": "%", "cmp": "=", "inhibition": 83.2}
{"smiles.str": "O=C(c1ccc(-c2cnc3c(c2)N(Cc2cc(Cl)ccc2C(F)(F)F)CCN3)cc1)N1CCCCC1", "target.entity": "Tyrosine-protein kinase ABL1 (Homo sapiens), P00519 [T315I]", "unit.name": "%", "cmp": "<", "inhibition": 50}
{"smiles.str": "CN1CCN(c2ccc(-c3cnc4c(c3)N(Cc3cc(F)ccc3F)CCN4)cn2)CC1", "target.entity": "Tyrosine-protein kinase ABL1 (Homo sapiens), P00519 [T315I]", "unit.name": "%", "cmp": "=", "inhibition": 80.4}

* * *

Target: Aurora kinase A (Homo sapiens) (UniProt O14965)
Sequence (O14965 whole entry): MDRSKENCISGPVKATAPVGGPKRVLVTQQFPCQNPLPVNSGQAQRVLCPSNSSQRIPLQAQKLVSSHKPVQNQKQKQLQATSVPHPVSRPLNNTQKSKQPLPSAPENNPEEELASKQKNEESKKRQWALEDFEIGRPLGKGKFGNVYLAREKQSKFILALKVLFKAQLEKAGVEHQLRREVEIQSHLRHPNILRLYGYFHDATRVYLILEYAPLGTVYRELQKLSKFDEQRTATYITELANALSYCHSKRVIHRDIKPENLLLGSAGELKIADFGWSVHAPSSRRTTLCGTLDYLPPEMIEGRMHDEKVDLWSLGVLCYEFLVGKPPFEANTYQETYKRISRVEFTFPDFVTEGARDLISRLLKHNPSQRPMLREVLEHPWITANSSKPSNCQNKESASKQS
Assay: Inhibition of AURKA at 1 uM
Examples of molecules with documented inhibition follow.
parameter.measured: inhibition

{"smiles.str": "O=C(c1ccc(-c2cnc3c(c2)N(Cc2cc(Cl)ccc2C(F)(F)F)CCN3)cc1)N1CCCCC1", "target.entity": "Aurora kinase A (Homo sapiens) (UniProt O14965)", "recorded.result": "< 50%"}
{"smiles.str": "CN1CCN(c2ccc(-c3cnc4c(c3)N(Cc3cc(Cl)ccc3C(F)(F)F)CCN4)cn2)CC1", "target.entity": "Aurora kinase A (Homo sapiens) (UniProt O14965)", "recorded.result": "< 50%"}
{"smiles.str": "O=C(c1ccc(-c2cnc3c(c2)N(Cc2cc(Cl)ccc2C(F)(F)F)CCN3)cc1)N1CCC(N2CCCC2)CC1", "target.entity": "Aurora kinase A (Homo sapiens) (UniProt O14965)", "recorded.result": "69.5%"}
{"smiles.str": "CC(=O)N1CCN(c2cc(-c3cnc4c(c3)N(Cc3cc(Cl)ccc3C(F)(F)F)CCN4)ccn2)CC1", "target.entity": "Aurora kinase A (Homo sapiens) (UniProt O14965)", "recorded.result": "68%"}
{"smiles.str": "CN1CCN(c2ccc(-c3cnc4c(c3)N(Cc3cc(Cl)ccc3Cl)CCN4)cn2)CC1", "target.entity": "Aurora kinase A (Homo sapiens) (UniProt O14965)", "recorded.result": "< 50%"}

* * *

inhibition overview
Molecular target: UniProt:P29597
Sequence (P29597 whole entry, the tested form may be a part): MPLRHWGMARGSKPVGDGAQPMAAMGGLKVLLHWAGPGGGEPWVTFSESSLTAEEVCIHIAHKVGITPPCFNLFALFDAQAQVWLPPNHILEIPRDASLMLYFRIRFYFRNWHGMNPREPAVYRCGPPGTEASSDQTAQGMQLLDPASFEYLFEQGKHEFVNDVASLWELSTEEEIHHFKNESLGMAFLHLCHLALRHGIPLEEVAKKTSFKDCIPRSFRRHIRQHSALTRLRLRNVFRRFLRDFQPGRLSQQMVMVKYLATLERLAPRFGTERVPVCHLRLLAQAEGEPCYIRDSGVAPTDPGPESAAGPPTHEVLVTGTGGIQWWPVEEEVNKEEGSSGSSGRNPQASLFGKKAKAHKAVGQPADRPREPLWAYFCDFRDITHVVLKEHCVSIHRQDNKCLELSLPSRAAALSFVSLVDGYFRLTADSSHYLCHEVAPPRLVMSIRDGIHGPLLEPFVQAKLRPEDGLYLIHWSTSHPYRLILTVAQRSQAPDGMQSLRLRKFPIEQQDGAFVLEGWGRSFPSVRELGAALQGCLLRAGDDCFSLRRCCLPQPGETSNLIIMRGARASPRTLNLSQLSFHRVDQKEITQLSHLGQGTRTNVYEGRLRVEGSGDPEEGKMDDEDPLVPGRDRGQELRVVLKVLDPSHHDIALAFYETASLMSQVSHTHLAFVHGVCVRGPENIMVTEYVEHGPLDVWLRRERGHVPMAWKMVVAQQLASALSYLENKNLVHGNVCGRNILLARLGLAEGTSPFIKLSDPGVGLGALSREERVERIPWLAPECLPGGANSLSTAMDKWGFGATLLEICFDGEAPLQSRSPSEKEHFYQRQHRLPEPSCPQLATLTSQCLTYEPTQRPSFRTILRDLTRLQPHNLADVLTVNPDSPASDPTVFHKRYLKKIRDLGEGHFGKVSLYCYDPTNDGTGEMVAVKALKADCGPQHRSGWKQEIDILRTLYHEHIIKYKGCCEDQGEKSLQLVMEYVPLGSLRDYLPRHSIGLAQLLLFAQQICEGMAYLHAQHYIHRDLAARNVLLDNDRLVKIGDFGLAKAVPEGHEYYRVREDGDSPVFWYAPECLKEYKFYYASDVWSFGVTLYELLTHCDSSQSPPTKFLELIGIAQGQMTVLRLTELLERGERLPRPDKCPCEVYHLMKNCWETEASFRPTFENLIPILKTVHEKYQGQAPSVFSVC
Assay: Inhibition of TYK2 JH1 catalytic domain at 1 uM

{"smiles.str": "CN1CCN(c2ccc(-c3cnc4c(c3)N(Cc3cc(Cl)ccc3Cl)CCN4)cn2)CC1", "target.entity": "UniProt:P29597", "inhibition": "< 50%"}
{"smiles.str": "COC1CCN(C(=O)c2ccc(-c3cnc4c(c3)N(Cc3cc(Cl)ccc3C(F)(F)F)CCN4)cc2)CC1", "target.entity": "UniProt:P29597", "inhibition": "< 50%"}
{"smiles.str": "CN1CCN(c2ccc(-c3cnc4c(c3)N(Cc3c(F)ccc(F)c3Cl)CCN4)cn2)CC1", "target.entity": "UniProt:P29597", "inhibition": "< 50%"}
{"smiles.str": "O=C(c1ccc(-c2cnc3c(c2)N(Cc2cc(Cl)ccc2C(F)(F)F)CCN3)cc1)N1CCC(N2CCCC2)CC1", "target.entity": "UniProt:P29597", "inhibition": "< 50%"}

* * *

Target: Misshapen-like kinase 1 (Homo sapiens) (UniProt Q8N4C8)
Sequence (Q8N4C8 whole entry, looked up): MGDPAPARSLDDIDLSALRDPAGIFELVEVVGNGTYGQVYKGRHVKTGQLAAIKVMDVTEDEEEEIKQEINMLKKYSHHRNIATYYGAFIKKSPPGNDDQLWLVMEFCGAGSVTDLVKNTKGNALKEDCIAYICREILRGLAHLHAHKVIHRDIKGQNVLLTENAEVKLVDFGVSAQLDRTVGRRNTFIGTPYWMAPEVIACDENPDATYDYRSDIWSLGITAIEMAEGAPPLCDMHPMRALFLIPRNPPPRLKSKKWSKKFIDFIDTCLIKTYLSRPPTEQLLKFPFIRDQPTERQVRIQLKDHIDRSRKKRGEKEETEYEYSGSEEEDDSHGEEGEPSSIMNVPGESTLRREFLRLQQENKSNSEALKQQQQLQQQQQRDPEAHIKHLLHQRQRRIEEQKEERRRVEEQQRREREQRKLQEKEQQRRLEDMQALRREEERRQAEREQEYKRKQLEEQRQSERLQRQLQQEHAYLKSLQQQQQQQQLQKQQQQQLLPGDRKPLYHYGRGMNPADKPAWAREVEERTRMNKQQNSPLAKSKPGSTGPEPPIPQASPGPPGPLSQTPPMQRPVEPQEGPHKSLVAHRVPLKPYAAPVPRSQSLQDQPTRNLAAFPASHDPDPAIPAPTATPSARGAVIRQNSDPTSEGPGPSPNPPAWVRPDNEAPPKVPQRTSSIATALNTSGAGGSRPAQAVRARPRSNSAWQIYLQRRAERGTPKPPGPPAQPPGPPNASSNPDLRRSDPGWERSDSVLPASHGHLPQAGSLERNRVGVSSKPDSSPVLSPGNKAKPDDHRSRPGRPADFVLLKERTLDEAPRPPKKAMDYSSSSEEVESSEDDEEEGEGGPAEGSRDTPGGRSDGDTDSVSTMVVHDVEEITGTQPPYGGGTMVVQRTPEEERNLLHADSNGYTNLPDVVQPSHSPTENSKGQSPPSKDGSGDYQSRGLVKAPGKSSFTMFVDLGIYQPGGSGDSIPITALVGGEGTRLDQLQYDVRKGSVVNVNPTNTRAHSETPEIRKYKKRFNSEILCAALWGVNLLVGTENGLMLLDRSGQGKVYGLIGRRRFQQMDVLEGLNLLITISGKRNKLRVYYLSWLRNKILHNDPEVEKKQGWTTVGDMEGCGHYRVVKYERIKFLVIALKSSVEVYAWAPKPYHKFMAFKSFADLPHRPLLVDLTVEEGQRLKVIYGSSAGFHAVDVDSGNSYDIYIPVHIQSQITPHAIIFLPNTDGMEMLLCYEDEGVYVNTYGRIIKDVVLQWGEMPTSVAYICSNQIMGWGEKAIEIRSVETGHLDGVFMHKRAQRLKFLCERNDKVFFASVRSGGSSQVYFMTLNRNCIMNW
Experiment: Inhibition of MINK at 1 uM
Each entry below carries its reported inhibition.

{"smiles.str": "CN1CCN(c2ccc(-c3cnc4c(c3)N(Cc3c(F)ccc(F)c3Cl)CCN4)cn2)CC1", "target.entity": "Misshapen-like kinase 1 (Homo sapiens) (UniProt Q8N4C8)", "inhibition": "96%"}
{"smiles.str": "CN1CCN(c2ccc(-c3cnc4c(c3)N(Cc3cc(Cl)ccc3C(F)(F)F)CCN4)cn2)CC1", "target.entity": "Misshapen-like kinase 1 (Homo sapiens) (UniProt Q8N4C8)", "inhibition": "< 50%"}
{"smiles.str": "CN1CCN(c2ccc(-c3cnc4c(c3)N(Cc3cc(F)ccc3F)CCN4)cn2)CC1", "target.entity": "Misshapen-like kinase 1 (Homo sapiens) (UniProt Q8N4C8)", "inhibition": "< 50%"}
{"smiles.str": "CN1CCN(c2ccc(-c3cnc4c(c3)N(Cc3cc(Cl)ccc3Cl)CCN4)cn2)CC1", "target.entity": "Misshapen-like kinase 1 (Homo sapiens) (UniProt Q8N4C8)", "inhibition": "< 50%"}
{"smiles.str": "CC(=O)N1CCN(c2cc(-c3cnc4c(c3)N(Cc3cc(Cl)ccc3C(F)(F)F)CCN4)ccn2)CC1", "target.entity": "Misshapen-like kinase 1 (Homo sapiens) (UniProt Q8N4C8)", "inhibition": "< 50%"}
{"smiles.str": "FC(F)(F)c1ccc(Cl)cc1CN1CCNc2ncc(-c3ccnc(N4CCNCC4)c3)cc21", "target.entity": "Misshapen-like kinase 1 (Homo sapiens) (UniProt Q8N4C8)", "inhibition": "< 50%"}

* * *

We begin with a simple list: items and their reported inhibition.
Test system: Phosphatidylinositol 4,5-bisphosphate 3-kinase catalytic subunit alpha isoform (Homo sapiens), P42336 [E545A]
Test: Inhibition of PIK3CA E545A mutant at 1 uM
parameter.measured: inhibition

{"smiles.str": "FC(F)(F)c1ccc(Cl)cc1CN1CCNc2ncc(-c3ccnc(N4CCNCC4)c3)cc21", "recorded.result": "< 50%"}
{"smiles.str": "CN1CCN(c2ccc(-c3cnc4c(c3)N(Cc3cc(F)ccc3F)CCN4)cn2)CC1", "recorded.result": "< 50%"}
{"smiles.str": "CC(=O)N1CCN(c2cc(-c3cnc4c(c3)N(Cc3cc(Cl)ccc3C(F)(F)F)CCN4)ccn2)CC1", "recorded.result": "< 50%"}
{"smiles.str": "CN1CCN(c2ccc(-c3cnc4c(c3)N(Cc3c(F)ccc(F)c3Cl)CCN4)cn2)CC1", "recorded.result": "< 50%"}
{"smiles.str": "CN1CCN(c2ccc(-c3cnc4c(c3)N(Cc3cc(Cl)ccc3C(F)(F)F)CCN4)cn2)CC1", "recorded.result": "< 50%"}
{"smiles.str": "CN1CCN(c2ccc(-c3cnc4c(c3)N(Cc3cc(Cl)ccc3Cl)CCN4)cn2)CC1", "recorded.result": "< 50%"}

* * *

Biological target: Macrophage colony-stimulating factor 1 receptor (Homo sapiens) (UniProt P07333)
Sequence (P07333 whole entry): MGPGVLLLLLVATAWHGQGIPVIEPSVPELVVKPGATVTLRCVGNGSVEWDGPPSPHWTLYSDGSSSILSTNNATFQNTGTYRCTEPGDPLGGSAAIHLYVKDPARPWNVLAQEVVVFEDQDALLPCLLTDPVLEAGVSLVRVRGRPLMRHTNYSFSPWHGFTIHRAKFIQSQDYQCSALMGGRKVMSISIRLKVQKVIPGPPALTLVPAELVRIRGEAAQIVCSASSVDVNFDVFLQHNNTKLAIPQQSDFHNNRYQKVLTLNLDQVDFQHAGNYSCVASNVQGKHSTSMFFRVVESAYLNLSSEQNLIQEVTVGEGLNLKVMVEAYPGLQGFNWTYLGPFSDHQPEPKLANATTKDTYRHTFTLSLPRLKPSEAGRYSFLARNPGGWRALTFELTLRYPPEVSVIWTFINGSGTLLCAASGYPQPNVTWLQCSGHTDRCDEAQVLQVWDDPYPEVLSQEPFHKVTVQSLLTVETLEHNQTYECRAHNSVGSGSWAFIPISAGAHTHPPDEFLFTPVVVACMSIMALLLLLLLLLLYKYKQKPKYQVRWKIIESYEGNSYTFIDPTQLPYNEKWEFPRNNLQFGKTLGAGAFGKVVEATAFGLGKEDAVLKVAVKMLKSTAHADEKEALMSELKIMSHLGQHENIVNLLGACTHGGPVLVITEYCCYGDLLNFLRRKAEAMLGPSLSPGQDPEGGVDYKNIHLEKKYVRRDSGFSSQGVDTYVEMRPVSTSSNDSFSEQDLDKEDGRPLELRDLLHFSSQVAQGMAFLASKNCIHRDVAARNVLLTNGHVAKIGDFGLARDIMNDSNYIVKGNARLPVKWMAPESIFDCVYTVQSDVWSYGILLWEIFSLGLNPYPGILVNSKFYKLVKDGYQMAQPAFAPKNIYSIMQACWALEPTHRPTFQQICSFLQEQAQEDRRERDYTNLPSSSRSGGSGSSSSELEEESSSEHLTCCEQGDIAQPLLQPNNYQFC
Test: Inhibition of CSF1R at 1 uM

{"smiles.str": "COC1CCN(C(=O)c2ccc(-c3cnc4c(c3)N(Cc3cc(Cl)ccc3C(F)(F)F)CCN4)cc2)CC1", "inhibition": "74.2%"}
{"smiles.str": "O=C(O)c1ccc(-c2cnc3c(c2)N(Cc2cc(Cl)ccc2C(F)(F)F)CCN3)cc1", "inhibition": "< 50%"}
{"smiles.str": "O=C(c1ccc(-c2cnc3c(c2)N(Cc2cc(Cl)ccc2C(F)(F)F)CCN3)cc1)N1CCC(N2CCCC2)CC1", "inhibition": "96.6%"}
{"smiles.str": "CN1CCN(c2ccc(-c3cnc4c(c3)N(Cc3c(F)ccc(F)c3Cl)CCN4)cn2)CC1", "inhibition": "96%"}

* * *

Target: Tyrosine-protein kinase JAK2 (Homo sapiens) (UniProt O60674)
Sequence (O60674 whole entry, the tested form may be a part): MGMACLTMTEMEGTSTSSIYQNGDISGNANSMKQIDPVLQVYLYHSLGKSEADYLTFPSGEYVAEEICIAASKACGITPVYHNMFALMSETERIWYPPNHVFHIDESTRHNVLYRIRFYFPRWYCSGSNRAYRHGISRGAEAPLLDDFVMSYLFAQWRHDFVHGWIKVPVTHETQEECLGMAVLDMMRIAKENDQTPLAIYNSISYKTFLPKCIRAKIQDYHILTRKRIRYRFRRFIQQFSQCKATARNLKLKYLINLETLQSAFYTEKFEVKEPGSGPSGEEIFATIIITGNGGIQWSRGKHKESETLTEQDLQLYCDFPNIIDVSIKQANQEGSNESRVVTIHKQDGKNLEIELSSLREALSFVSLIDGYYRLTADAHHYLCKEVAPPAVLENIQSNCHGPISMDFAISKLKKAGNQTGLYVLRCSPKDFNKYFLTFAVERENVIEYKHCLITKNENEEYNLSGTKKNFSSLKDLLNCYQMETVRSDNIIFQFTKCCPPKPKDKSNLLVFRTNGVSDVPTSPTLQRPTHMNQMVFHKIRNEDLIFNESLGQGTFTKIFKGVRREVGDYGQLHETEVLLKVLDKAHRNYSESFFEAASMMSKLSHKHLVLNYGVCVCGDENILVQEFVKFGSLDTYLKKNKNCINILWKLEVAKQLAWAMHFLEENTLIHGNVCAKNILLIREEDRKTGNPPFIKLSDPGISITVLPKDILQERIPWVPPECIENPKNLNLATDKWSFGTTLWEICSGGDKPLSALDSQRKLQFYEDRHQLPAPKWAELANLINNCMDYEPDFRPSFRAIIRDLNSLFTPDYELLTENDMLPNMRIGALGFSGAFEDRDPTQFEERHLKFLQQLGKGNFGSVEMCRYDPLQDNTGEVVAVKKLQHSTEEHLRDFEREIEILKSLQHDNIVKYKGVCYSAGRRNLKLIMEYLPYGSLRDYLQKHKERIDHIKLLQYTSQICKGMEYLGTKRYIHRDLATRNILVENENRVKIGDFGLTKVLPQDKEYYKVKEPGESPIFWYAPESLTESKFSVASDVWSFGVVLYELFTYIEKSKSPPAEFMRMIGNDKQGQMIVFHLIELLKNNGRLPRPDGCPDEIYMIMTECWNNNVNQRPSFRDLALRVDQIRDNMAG
Assay: Inhibition of JAK2 JH1 catalytic domain at 1 uM

{"smiles.str": "FC(F)(F)c1ccc(Cl)cc1CN1CCNc2ncc(-c3ccnc(N4CCNCC4)c3)cc21", "inhibition [%]": 97}
{"smiles.str": "O=C(O)c1ccc(-c2cnc3c(c2)N(Cc2cc(Cl)ccc2C(F)(F)F)CCN3)cc1", "inhibition [%]": 95.1}
{"smiles.str": "CN1CCN(c2ccc(-c3cnc4c(c3)N(Cc3cc(Cl)ccc3Cl)CCN4)cn2)CC1", "inhibition [%]": 95}
{"smiles.str": "CN1CCN(c2ccc(-c3cnc4c(c3)N(Cc3cc(Cl)ccc3C(F)(F)F)CCN4)cn2)CC1", "inhibition [%]": 94}

* * *

inhibition listing for selected compounds.
Molecular target: Activated CDC42 kinase 1 (Homo sapiens)
Assay: Inhibition of TNK2 at 1 uM

{"smiles.str": "CN1CCN(c2ccc(-c3cnc4c(c3)N(Cc3cc(Cl)ccc3C(F)(F)F)CCN4)cn2)CC1", "inhibition / %": 98}
{"smiles.str": "O=C(c1ccc(-c2cnc3c(c2)N(Cc2cc(Cl)ccc2C(F)(F)F)CCN3)cc1)N1CCCCC1", "inhibition / %": 93.2}
{"smiles.str": "CC(=O)N1CCN(c2cc(-c3cnc4c(c3)N(Cc3cc(Cl)ccc3C(F)(F)F)CCN4)ccn2)CC1", "inhibition / %": 99}

* * *

Target: Aurora kinase A (Homo sapiens)
Experiment: Inhibition of AURKA at 1 uM
inhibition for assorted compounds
parameter.measured: inhibition

{"smiles.str": "CN1CCN(c2ccc(-c3cnc4c(c3)N(Cc3c(F)ccc(F)c3Cl)CCN4)cn2)CC1", "recorded.result": "< 50%"}
{"smiles.str": "COC1CCN(C(=O)c2ccc(-c3cnc4c(c3)N(Cc3cc(Cl)ccc3C(F)(F)F)CCN4)cc2)CC1", "recorded.result": "< 50%"}
{"smiles.str": "CN1CCN(c2ccc(-c3cnc4c(c3)N(Cc3cc(F)ccc3F)CCN4)cn2)CC1", "recorded.result": "< 50%"}
